Reference source for all entries: PubChem BioAssay

# assay text: growth suppression of PTEN-deleted HCT116, pilot screen, cell-based, HCT116 clonal line, CellTiter-Glo (AID 824);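 also: 0% = 20 µM Hyamine control and 100% = vehicle cell control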
# measurement conditions: 60 h, at 10 µM, active compounds read low
Inconclusive results are not listed.
reported property: viability (%)
Write down the numeric answer in % and omit the unit.

// below: answered compounds
compound | viability, %
COc1ccc(OC)c(N(CC(=O)NCc2ccccn2)S(C)(=O)=O)c1 | 96.3
O=S(=O)(CCc1ccccc1)N1CCOCC1 | 103
Cc1ccc(C(c2sc3nc(C)nn3c2O)N2CCN(CCO)CC2)cc1 (stereo not drawn) | 97.5

Supply measured viability of O=C(O)CCC(C(=O)O)n1c(O)c(C2=c3ccccc3=NC2=O)sc1=S (stereo not drawn) in your reply.
95.3

Name the recorded viability of the item `O=S(=O)(Nc1ccc(O)cc1)c1cccc2cccnc12` in your answer.
87

Return reported viability. Input compound: `O=C(NCc1ccc2c(c1)OCO2)Oc1ccccc1`
101

Please look at this compound and report its viability: `O=C(c1cccc(C(=O)N2CCc3ccccc32)n1)N1CCc2ccccc21`
84.4
